B1: SMOC2 (parent)
chain: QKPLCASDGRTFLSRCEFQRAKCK

# Variants of: B1
# method: protein stability index of a GFP-peptide fusion (GPS, HEK-293T) (PSI 1-6); higher = more stable;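 note: lentivirally expressed fusions sorted by FACS into six bins by GFP to DsRed ratio, PSI derived from sequencing read proportions per bin multiplied by bin number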
# test-conditions: c terminus: a fixed tail appended
Everything with protein stability index lower than 3 is label 0; everything else, including exactly 3, is label 1.

Field: example entries. Status: answers known.
mutation-spec: T11E
class-label: label 1
//
mutation-spec: P3N
class-label: label 0
//
mutation-spec: A6W
class-label: label 0
//
mutation-spec: A6R
class-label: label 0
//
mutation-spec: R10S
class-label: label 1

protein stability index >= 3 for T11Q ?
label 1

Textbook exercise: given the entry G9W , state whether its protein stability index is greater than or equal to 3.
label 0
